Data provenance is patent US20190282704A1.

- subject of test: canine IL-31 (Canine_IL31) (canine)
- Sequence (chain, as listed by the source limits assumed, form in doubt): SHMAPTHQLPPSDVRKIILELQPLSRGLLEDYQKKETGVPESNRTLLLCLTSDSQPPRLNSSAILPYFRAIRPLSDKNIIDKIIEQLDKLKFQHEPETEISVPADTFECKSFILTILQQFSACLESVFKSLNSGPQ
- protocol: SPR (Biacore), immobilised IL-31, 1:1 fit
experimental readout: koff (s⁻¹)
Just the number in s⁻¹, nothing appended.

binder="Feline 15H05 3.1 (antibody, V domains shown) VH: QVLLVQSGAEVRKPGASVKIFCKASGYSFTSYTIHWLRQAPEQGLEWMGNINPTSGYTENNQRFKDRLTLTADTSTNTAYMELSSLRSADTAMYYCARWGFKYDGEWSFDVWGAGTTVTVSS VL: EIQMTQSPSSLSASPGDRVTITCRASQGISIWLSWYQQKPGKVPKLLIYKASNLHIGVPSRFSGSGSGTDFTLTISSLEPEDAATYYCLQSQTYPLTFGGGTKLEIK" assay_result=2.11e-05
binder="mouse anti IL-31 antibody 11E12 (antibody, V domains shown) VH: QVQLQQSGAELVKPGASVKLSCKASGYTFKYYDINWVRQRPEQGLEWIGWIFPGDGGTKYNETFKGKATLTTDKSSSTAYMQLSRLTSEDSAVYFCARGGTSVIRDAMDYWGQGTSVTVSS VL: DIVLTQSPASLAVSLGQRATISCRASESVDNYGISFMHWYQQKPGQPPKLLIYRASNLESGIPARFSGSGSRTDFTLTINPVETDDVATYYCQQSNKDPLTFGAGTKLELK" assay_result=4.8e-07
binder="Feline 15H05 3.2 (antibody, V domains shown) VH: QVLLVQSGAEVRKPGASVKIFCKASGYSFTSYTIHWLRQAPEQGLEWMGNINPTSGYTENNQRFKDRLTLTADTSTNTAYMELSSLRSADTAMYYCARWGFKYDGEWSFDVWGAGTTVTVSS VL: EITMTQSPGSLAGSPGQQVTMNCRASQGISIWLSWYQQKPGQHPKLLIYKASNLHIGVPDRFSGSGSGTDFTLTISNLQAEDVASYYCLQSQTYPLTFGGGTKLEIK" assay_result=6.04e-06
binder="Feline 11E12 1.1 FW2 (antibody, V domains shown) VH: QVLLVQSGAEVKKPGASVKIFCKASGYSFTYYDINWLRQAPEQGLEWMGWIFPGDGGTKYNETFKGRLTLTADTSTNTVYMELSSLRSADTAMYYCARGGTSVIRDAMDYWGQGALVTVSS VL: EIQMTQSPSSLSASPGDRVTITCRASESVDNYGISFMHWYQQKPGQPPKLLIYRASNLESGVPSRFSGSGSGTDFTLTISSLEPEDAATYYCQQSNKDPLTFGQGT" assay_result=0.000318
binder="Feline 11E12 1.1 K46Q (antibody, V domains shown) VH: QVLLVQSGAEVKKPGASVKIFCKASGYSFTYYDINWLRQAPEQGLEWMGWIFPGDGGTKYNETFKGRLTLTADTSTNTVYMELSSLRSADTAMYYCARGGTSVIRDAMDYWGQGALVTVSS VL: EIQMTQSPSSLSASPGDRVTITCRASESVDNYGISFMHWYQQKPGQVPKLLIYRASNLESGVPSRFSGSGSGTDFTLTISSLEPEDAATYYCQQSNKDPLTFGQGT" assay_result=8.85e-05

Attention now turns to another entry.
[Q] Annotate the binder Feline 15H05_VH3 mouse VL (antibody, V domains shown) VH: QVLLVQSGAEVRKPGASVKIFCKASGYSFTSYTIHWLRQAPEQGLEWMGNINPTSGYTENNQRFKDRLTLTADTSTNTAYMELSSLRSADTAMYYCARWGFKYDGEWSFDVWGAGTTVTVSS VL: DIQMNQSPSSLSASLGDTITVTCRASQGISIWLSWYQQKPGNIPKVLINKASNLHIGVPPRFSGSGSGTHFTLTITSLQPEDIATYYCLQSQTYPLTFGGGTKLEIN with its measured koff.
[A] 2.64e-07
